molecular target: PII–PirC complex (Synechocystis sp. PCC 6803, UniProt Q55247); assay: bio-layer interferometry, inhibition of PirC–PII binding
Sequence (Q55247 whole entry): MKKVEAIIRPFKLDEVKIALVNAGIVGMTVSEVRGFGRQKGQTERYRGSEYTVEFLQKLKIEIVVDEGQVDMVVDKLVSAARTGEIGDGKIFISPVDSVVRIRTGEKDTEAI
Sequence (P77971 53-164 partner): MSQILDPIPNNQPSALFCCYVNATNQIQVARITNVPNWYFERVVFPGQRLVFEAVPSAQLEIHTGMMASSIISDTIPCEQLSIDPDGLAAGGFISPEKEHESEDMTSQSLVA
assay.metric: IC50
In your response, the unit should come after the numeric value.

Inquiry: Which IC50 is listed for O=C(O)CCC(=O)C(=O)O ?
Reply text: 123 µM
